The reported measurements were obtained from patent US10941182.

study target: T1, human APJ receptor (human, UniProt P35414 1-380)
T1 sequence (looked up): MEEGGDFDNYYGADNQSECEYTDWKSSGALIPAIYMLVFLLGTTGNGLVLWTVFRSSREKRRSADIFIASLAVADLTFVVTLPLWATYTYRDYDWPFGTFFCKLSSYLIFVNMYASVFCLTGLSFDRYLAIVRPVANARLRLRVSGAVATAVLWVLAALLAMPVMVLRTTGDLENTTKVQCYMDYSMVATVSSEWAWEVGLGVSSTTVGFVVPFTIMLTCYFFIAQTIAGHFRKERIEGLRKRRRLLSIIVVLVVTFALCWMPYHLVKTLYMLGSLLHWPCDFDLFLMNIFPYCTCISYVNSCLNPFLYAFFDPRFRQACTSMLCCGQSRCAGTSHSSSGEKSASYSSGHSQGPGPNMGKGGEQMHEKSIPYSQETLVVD
assay comment: cell-based or functional assay
Starred links: 1 amine or outer side, 2 acyl side, 3 side chain; linkers in the order of their positions; H or OH if unused. Non-standard residues stand in square brackets, D forms with d. *: point of attachment. Bh4ClF = β-4-chloro-L-homophenylalanine, O=C(C[C@H](Cc1ccc(Cl)cc1)N[*:1])[*:2]; AC4Abu = α-carboxy-4-aminobutyric acid, O=C(C(CCN[*:1])C(=O)[*:3])[*:2]; Oic = O=C(O)[C@@H]1C[C@@H]2CCCC[C@@H]2N1; Phe(4-Cl) = N[C@@H](Cc1ccc(Cl)cc1)C(=O)O; dPhe(4-Cl) = N[C@H](Cc1ccc(Cl)cc1)C(=O)O; dPhe(4-I) = N[C@H](Cc1ccc(I)cc1)C(=O)O; γGlu = O=C(O)[C@H](CCC(=O)[*:2])N[*:1]; 2Nal = N[C@@H](Cc1ccc2ccccc2c1)C(=O)O; NMeR = CN[C@@H](CCCNC(=N)N)C(=O)O; Tridecanoyl = CCCCCCCCCCCCC(=O)*; hArg = N=C(N)NCCCC[C@H](N)C(=O)O; Cha = N[C@@H](CC1CCCCC1)C(=O)O; Nle = CCCC[C@H](N)C(=O)O; AEEA = NCCOCCOCC(=O)O; BLys = β-lysine

{"binder": "Tridecanoyl-[γGlu][AEEA][AEEA][dQ][hArg]P[NMeR][Cha]SH[BLys]G[Oic][Nle]P[dPhe(4-Cl)]-OH [Apelin polypeptide SEQ ID NO: 306]", "EC50 Human APJ Receptor (GTPγS assay)": "74.1 nM"}
{"binder": "Tridecanoyl-[γGlu][AEEA][AEEA][dQ][hArg]P[dR][Cha]SHKG[Oic][Nle]P[Phe(4-Cl)]-OH [Apelin polypeptide SEQ ID NO: 363]", "EC50 Human APJ Receptor (GTPγS assay)": "3.27 nM"}
{"binder": "XXXQRPRLSHKGPXPF ({TDA}[AC4Abu][Aeea][Aeea]Q[hArg]P[NMeArg]LSHKGP[Nle]P[4-Cl-F]{COOH}) [Apelin polypeptide SEQ ID NO: 353]", "EC50 Human APJ Receptor (GTPγS assay)": "0.095 nM"}
{"binder": "Tridecanoyl-[AC4Abu][AEEA][AEEA]QRP[NMeR]LSHKGP[Nle][2Nal]-OH (SMILES CCCCCCCCCCCCC(=O)NCCC(C(=O)O)C(=O)NCCOCCOCC(=O)NCCOCCOCC(=O)N[C@@H](CCC(N)=O)C(=O)N[C@@H](CCCNC(=N)N)C(=O)N1CCC[C@H]1C(=O)N(C)[C@@H](CCCNC(=N)N)C(=O)N[C@@H](CC(C)C)C(=O)N[C@@H](CO)C(=O)N[C@@H](Cc1c[nH]cn1)C(=O)N[C@@H](CCCCN)C(=O)NCC(=O)N1CCC[C@H]1C(=O)N[C@@H](CCCC)C(=O)N[C@@H](Cc1ccc2ccccc2c1)C(=O)O) [Apelin polypeptide SEQ ID NO: 403]", "EC50 Human APJ Receptor (GTPγS assay)": "2.63 nM"}
{"binder": "Tridecanoyl-[AC4Abu][AEEA][AEEA][dQ][hArg]P[dR][Cha]SHKG[Oic][Nle][dPhe(4-I)]-OH (SMILES CCCCCCCCCCCCC(=O)NCCC(C(=O)O)C(=O)NCCOCCOCC(=O)NCCOCCOCC(=O)N[C@H](CCC(N)=O)C(=O)N[C@@H](CCCCNC(=N)N)C(=O)N1CCC[C@H]1C(=O)N[C@H](CCCNC(=N)N)C(=O)N[C@@H](CC1CCCCC1)C(=O)N[C@@H](CO)C(=O)N[C@@H](Cc1c[nH]cn1)C(=O)N[C@@H](CCCCN)C(=O)NCC(=O)N1[C@H](C(=O)N[C@@H](CCCC)C(=O)N[C@H](Cc2ccc(I)cc2)C(=O)O)C[C@@H]2CCCC[C@@H]21) [Apelin polypeptide SEQ ID NO: 453]", "EC50 Human APJ Receptor (GTPγS assay)": "19 nM"}
{"binder": "Tridecanoyl-[γGlu][AEEA][AEEA][dQ][hArg]P[dR][Cha]SHKG[Oic][Nle]P[Bh4ClF]-OH [Apelin polypeptide SEQ ID NO: 370]", "EC50 Human APJ Receptor (GTPγS assay)": "12.9 nM"}
